system.name: FUS-NLUC-FLAG (UniProt P35637 1-526, P525L)
Sequence (P35637 whole entry P525L): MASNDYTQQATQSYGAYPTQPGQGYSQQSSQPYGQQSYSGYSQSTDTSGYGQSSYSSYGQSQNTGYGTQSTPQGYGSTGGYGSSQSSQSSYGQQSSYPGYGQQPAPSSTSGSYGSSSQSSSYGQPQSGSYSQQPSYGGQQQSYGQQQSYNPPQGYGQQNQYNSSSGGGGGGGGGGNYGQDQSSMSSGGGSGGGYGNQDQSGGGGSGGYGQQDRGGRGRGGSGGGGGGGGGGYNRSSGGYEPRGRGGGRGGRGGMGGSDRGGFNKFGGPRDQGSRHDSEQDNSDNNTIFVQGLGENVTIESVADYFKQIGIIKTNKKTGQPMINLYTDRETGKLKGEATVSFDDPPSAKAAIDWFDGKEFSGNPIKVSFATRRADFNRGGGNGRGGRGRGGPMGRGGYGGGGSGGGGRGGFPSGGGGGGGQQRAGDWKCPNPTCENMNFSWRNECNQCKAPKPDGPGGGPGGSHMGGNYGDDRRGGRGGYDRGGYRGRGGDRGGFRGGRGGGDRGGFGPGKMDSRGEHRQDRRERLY
experimental.protocol: NanoBRET
quantity.kind: Kd (nM)
One number for each entry, in nM.

Answer with reported Kd of CUGCUAGCCUCUGGAUUUGA (ssRNA) [PO-RNA JB-39]
143
